Molecular target: human FAAH (Homo sapiens, UniProt O00519)
Construct: host or cells: COS-7 cells, transient transfection (FuGENE 6); 13,000 g membrane fraction solubilised in 1% Triton X-100
Assay: Human FAAH biochemical inhibition assay (AMC arachidonoyl amide fluorescence)
Conditions: class given in each Example, read-out: Activity (Ki, inhibition of human FAAH)
pKi: −log10 of the molar value.
Parameter: pKi. Scope: all listed entries.

As a guide, the following entries are already answered.
MOLECULE: NCCc1nnc(-c2ccc(B(O)O)cc2)o1 [Compound 84]
pKi: < 6.00
//
MOLECULE: CC(C)(C)OC(=O)N1CCC(Cc2nc3ccc(B(O)O)cc3o2)CC1 [Compound 299]
pKi: ≥ 8.00
//
MOLECULE: CCC/C=C/c1nnc(-c2ccc(B(O)O)cc2)o1 [Compound 25]
pKi: ≥ 8.00
//
MOLECULE: CC(C)(C)OC(=O)N1CCN(C(=O)CCB(O)O)CC1 [Compound 323]
pKi: 6.00 to 7.00
//
MOLECULE: OB(O)c1ccc2nc(Oc3ccccc3)ccc2c1 [Compound 187]
pKi: ≥ 8.00

Tested on human FAAH (Homo sapiens, UniProt O00519), the item CCCCCN1C(=O)c2ccc(B(O)O)cc2C1=O [Compound 307] showed pKi equal to ≥ 8.00

Tested on human FAAH (Homo sapiens, UniProt O00519), the item OB1c2ccc(OCc3ccccc3)cc2C=NN1Cc1ccccc1 [Compound 109] showed pKi equal to 7.00 to 8.00

###

Parameter: Ki. Scope: all listed entries.
Molecular target: human FAAH (Homo sapiens)
Construct: host or cells: COS-7 cells, transient transfection (FuGENE 6); 13,000 g membrane fraction solubilised in 1% Triton X-100
Test: Human FAAH biochemical inhibition assay (AMC arachidonoyl amide fluorescence)
Conditions: class given in each Example, read-out: Activity (Ki, inhibition of human FAAH)

COMPOUND SMILES: CC(C)(C)OC(=O)N1CCN(c2ccc(B(O)O)cc2)CC1
Ki: 10 to 100 nM
--
COMPOUND SMILES: OB(O)c1ccc(-c2nnc(CCC(F)(F)C(F)(F)F)o2)cc1
Ki: ≤ 10 nM
--
COMPOUND SMILES: Cc1nc2cc(B(O)O)ccc2s1
Ki: 100 to 1000 nM
--
COMPOUND SMILES: OB(O)c1ccc([C@H]2OC[C@@H](c3ccccc3)O2)cc1
Ki: ≤ 10 nM
--
COMPOUND SMILES: O=C(CCc1nnc(-c2ccc(B(O)O)cc2)o1)N1CCCCC1
Ki: 10 to 100 nM

Short answer for OB(O)c1ccc(-c2cn(-c3ccccc3)nn2)cc1 : Ki was 10 to 100 nM

Short answer for OB(O)c1ccc2cc(CCc3ccccc3)oc2c1 : Ki was ≤ 10 nM

Short answer for CCCc1nnc(-c2cc(OC)ccc2B(O)O)o1 : Ki was > 1000 nM

Short answer for OB(O)c1ccc(-c2cccc(-c3ccccc3)c2)cc1 : Ki was 10 to 100 nM

###

Target: human FAAH (Homo sapiens, UniProt O00519)
Construct: host or cells: COS-7 cells, transient transfection (FuGENE 6); 13,000 g membrane fraction solubilised in 1% Triton X-100
Sequence (O00519 1-579): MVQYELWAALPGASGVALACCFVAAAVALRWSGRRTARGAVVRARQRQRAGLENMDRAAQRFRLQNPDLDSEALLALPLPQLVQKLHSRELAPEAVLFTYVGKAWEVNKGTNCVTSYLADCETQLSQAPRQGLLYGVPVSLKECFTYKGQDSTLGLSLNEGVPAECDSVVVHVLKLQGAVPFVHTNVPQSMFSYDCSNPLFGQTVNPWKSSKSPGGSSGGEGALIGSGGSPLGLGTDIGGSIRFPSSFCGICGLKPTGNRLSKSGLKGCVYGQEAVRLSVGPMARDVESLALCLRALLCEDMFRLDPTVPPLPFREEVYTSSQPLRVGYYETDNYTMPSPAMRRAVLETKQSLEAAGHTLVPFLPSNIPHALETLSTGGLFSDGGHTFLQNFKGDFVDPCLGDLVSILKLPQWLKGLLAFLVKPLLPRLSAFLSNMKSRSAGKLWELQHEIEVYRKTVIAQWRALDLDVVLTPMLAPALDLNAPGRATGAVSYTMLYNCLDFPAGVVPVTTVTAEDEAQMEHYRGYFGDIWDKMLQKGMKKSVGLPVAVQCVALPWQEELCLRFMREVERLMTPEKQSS
Assay: Human FAAH biochemical inhibition assay (AMC arachidonoyl amide fluorescence)
Settings: class given in each Example, read-out: Activity (Ki, inhibition of human FAAH)
pKi: −log10 of the molar value.
Parameter: pKi. Scope: all listed entries.

COMPOUND: OB(O)c1ccc(-c2nnc(-c3cccc4c3OCO4)s2)cc1
pKi: ≥ 8.00

COMPOUND: OB(O)c1ccc(C2=NOC(c3ccccc3)C2)cc1 (stereo not drawn)
pKi: ≥ 8.00

COMPOUND: COCc1cc(OCCc2ccccc2)ccc1B(O)O
pKi: 7.00 to 8.00

COMPOUND: OB(O)c1ccc([C@H]2OC[C@H](c3ccccc3)CO2)cc1
pKi: ≥ 8.00

Short answer for OB1NN=Cc2cc(OCc3ccccc3)ccc21 : pKi was < 6.00

Short answer for CC(C)c1cccc(-c2ccc(B(O)O)c(F)c2)c1 : pKi was ≥ 8.00

Short answer for OB(O)c1ccc(-c2cn(Cc3ccc(C(F)(F)F)cc3)nn2)cc1 : pKi was 6.00 to 7.00

Short answer for CCCc1noc(-c2ccc(B(O)O)cc2)n1 : pKi was ≥ 8.00

Short answer for CN(Cc1ccccc1)c1ccc2cc(B(O)O)ccc2n1 : pKi was ≥ 8.00

###

Molecular target: human FAAH (Homo sapiens, UniProt O00519)
Construct: host or cells: COS-7 cells, transient transfection (FuGENE 6); 13,000 g membrane fraction solubilised in 1% Triton X-100
Sequence (O00519 1-579): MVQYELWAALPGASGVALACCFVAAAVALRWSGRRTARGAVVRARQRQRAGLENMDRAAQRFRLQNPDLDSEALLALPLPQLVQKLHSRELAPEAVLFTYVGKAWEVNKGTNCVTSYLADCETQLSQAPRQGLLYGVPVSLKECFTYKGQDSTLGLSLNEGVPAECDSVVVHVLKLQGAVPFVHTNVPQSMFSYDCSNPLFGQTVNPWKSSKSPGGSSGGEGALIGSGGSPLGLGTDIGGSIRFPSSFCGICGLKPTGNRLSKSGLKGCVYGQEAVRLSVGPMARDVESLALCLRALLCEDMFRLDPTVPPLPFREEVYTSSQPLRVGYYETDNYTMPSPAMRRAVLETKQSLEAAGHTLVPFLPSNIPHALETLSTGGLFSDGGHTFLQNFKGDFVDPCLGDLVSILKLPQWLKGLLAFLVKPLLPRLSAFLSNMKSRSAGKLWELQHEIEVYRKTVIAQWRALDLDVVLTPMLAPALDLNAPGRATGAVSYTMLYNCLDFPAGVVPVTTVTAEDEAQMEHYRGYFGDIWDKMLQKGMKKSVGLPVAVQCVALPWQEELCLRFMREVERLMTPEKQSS
Experiment: Human FAAH biochemical inhibition assay (AMC arachidonoyl amide fluorescence)
Conditions: class given in each Example, read-out: Activity (Ki, inhibition of human FAAH)
Protocol: Exemplary compounds are set forth in the Examples provided below. Compounds were assayed as inhibitors of human FAAH using the method described in detail in Example 286. […] Rat FAAH biochemical assays were carried out in a 96 well flat bottom black non-treated polystyrene plates (Corning Costar Catalogue #3915). […] The reaction was read in an Envision microtiter plate reader [Excitation filter 355 nm (40 nm bandpass); Emmision filter 460 nm (25 nm bandpass)]. […]
Parameter: Ki. Scope: all listed entries.

As a guide, the following entries are already answered.
COMPOUND SMILES: OB(O)c1ccc2oc(CCc3ccccc3)cc2c1
Ki: ≤ 10 nM

COMPOUND SMILES: COc1cccc(Cn2cc(-c3ccc(B(O)O)cc3)nn2)c1
Ki: 10 to 100 nM

COMPOUND SMILES: CCCc1nc(-c2ccc(B(O)O)cc2)no1
Ki: ≤ 10 nM

COMPOUND SMILES: OB(O)c1ccc2ccc(Oc3ccccc3)nc2c1
Ki: ≤ 10 nM

Please turn your attention to the following entry.
Short answer for OB(O)c1ccc2nc(Oc3ccccn3)ccc2c1 : Ki was ≤ 10 nM

###

Parameter: Ki. Scope: all listed entries.
Target: human FAAH (Homo sapiens)
Construct: host or cells: COS-7 cells, transient transfection (FuGENE 6); 13,000 g membrane fraction solubilised in 1% Triton X-100
Sequence (O00519 1-579): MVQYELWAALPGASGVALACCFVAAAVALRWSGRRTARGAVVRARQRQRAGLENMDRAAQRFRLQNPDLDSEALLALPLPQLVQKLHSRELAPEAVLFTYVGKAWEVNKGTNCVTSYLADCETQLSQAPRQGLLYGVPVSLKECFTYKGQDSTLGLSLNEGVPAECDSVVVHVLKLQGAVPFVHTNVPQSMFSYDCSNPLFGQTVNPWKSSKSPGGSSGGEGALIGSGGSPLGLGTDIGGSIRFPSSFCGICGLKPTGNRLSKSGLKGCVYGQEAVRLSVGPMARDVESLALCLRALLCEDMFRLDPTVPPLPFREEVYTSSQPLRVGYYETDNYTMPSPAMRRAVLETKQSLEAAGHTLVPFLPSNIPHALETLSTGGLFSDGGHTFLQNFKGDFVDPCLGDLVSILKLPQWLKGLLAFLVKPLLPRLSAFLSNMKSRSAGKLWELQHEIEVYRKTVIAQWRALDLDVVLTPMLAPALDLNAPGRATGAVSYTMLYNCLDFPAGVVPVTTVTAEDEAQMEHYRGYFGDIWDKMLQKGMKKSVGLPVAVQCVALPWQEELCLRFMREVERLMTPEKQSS
Assay: Human FAAH biochemical inhibition assay (AMC arachidonoyl amide fluorescence)
Settings: class given in each Example, read-out: Activity (Ki, inhibition of human FAAH)

COMPOUND: OB(O)c1ccc(-c2nnc(CCc3ccccc3)o2)cc1 [Compound 57]
VALUE REPORTED: ≤ 10 nM
//
COMPOUND: OB(O)c1ccc(-c2cn(Cc3ccccc3)nn2)cc1 [Example 117]
VALUE REPORTED: ≤ 10 nM

Short answer for CN(C)C(=O)/C=C/c1cc(OCCc2ccccc2)ccc1B(O)O [Compound 103] : Ki was 10 to 100 nM

Short answer for CC(=O)NCCc1nnc(-c2ccc(B(O)O)cc2)o1 [Compound 85] : Ki was 100 to 1000 nM

Short answer for CN(Cc1ccccc1)Cc1cc(OCc2ccccc2)ccc1B(O)O [Compound 110] : Ki was 100 to 1000 nM

Short answer for OB(O)c1ccc2oc(CCc3ccccc3)nc2c1 [Compound 242] : Ki was ≤ 10 nM

Short answer for CN(CCc1ccc(B(O)O)c(F)c1)C(=O)OC(C)(C)C [Compound 311] : Ki was ≤ 10 nM

Short answer for Cn1ccc2c(-c3nnc(-c4ccc(B(O)O)cc4)o3)cccc21 [Compound 51] : Ki was ≤ 10 nM

Short answer for O=C(/C=C/c1ccccc1B(O)O)NCc1ccccc1 [Compound 112] : Ki was 100 to 1000 nM

Short answer for OB(O)c1ccc(-c2nnc(-c3cccc4c3OC(F)(F)O4)o2)cc1 [Compound 52] : Ki was ≤ 10 nM

Short answer for CCCc1nnc(-c2ccsc2B(O)O)o1 [Compound 72] : Ki was > 1000 nM

Short answer for CC(C)c1nnc(-c2ccccc2B(O)O)o1 [Compound 283] : Ki was > 1000 nM

Short answer for Cc1cc(Oc2ccccc2)nc2c(C)cc(B(O)O)cc12 [Compound 212] : Ki was 10 to 100 nM

Short answer for OB(O)c1ccc(-c2nnc(-c3ccccn3)o2)cc1 [Compound 65] : Ki was 10 to 100 nM

Short answer for CCCCCc1nc2ccc(B(O)O)cc2o1 [Compound 245] : Ki was ≤ 10 nM

Short answer for COC(=O)NCCc1nnc(-c2ccc(B(O)O)cc2)o1 [Compound 86] : Ki was 10 to 100 nM

Short answer for CCCCC(C)c1nnc(-c2ccc(B(O)O)cc2)o1 (stereo not shown) [Compound 34] : Ki was ≤ 10 nM

Short answer for Cc1nc(CC(=O)N/N=C/c2ccccc2B(O)O)cs1 [Compound 123] : Ki was > 1000 nM

Short answer for CC(C)CCn1cc(-c2ccc(B(O)O)cc2)cn1 [Compound 222] : Ki was ≤ 10 nM

Short answer for CCCCCC1CC(c2ccc(B(O)O)cc2)=NO1 (stereo not shown) [Compound 161] : Ki was ≤ 10 nM

Short answer for COC(=O)CCc1cc(OCCc2ccccc2)ccc1B(O)O [Compound 102] : Ki was 10 to 100 nM
